GI50 overview
test system: K562; assay: Antiproliferative activity against human K562 cells assessed as inhibition of cell proliferation incubated for 72 hrs by CCK8 assay; format: functional, cell-based; details: K562, 72 h

Consider the following illustrative entries.
Read the entry CC(C)C[C@H](NC(=O)C1=CC[C@@H](c2cccc(Br)c2)N(S(=O)(=O)c2ccc(Cl)cc2)[C@H]1c1cccc(Cl)c1)C(N)=O and write its reported GI50.
7.06 µM

Read the entry COC(=O)[C@H](Cc1ccccc1)NC(=O)C1=C[C@@H](C(C)(C)C)N(S(=O)(=O)c2ccccc2C)[C@H]1c1ccc(Cl)cc1 and write its reported GI50.
14 to 17 µM

Read the entry NC(=O)[C@H](Cc1ccccc1)NC(=O)C1=CC[C@@H](c2cccc(Cl)c2)N(S(=O)(=O)c2ccc(Br)cc2)[C@H]1c1cccc(Cl)c1 and write its reported GI50.
7.69 to 10.3 µM

Read the entry Cc1ccccc1S(=O)(=O)N1[C@@H](c2ccc(Cl)cc2)C(C(=O)N[C@@H](Cc2ccccc2)C(N)=O)=C[C@H]1C(C)CC(C)(C)C (stereo partly specified) and write its reported GI50.
5.95 to 6.3 µM

Read the entry CC(C)(C)[C@@H]1C=C(C(=O)N[C@@H](Cc2ccccc2)C(N)=O)[C@H](c2ccc(Br)cc2)N1S(=O)(=O)c1ccccc1Cl and write its reported GI50.
5.21 to 9.18 µM

Read the entry CC(C)C[C@H](NC(=O)C1=CC[C@@H](c2cccc(Cl)c2)N(S(=O)(=O)c2ccc(Br)cc2)[C@H]1c1cccc(Br)c1)C(N)=O and write its reported GI50.
4.37 to 12.9 µM

Read the entry Cc1ccccc1S(=O)(=O)N1[C@@H](c2ccc(Cl)c(Cl)c2)C(C(=O)N[C@@H](Cc2ccccc2)C(N)=O)=C[C@H]1C(C)(C)C and write its reported GI50.
6.74 to 6.9 µM

Read the entry CC(C)C[C@H](NC(=O)C1=CC[C@@H](c2cccc(Br)c2)N(S(=O)(=O)c2ccc(F)cc2)[C@H]1c1cccc(Cl)c1)C(N)=O and write its reported GI50.
1.7 to 10.2 µM

Further cases:
Read the entry Cc1ccccc1S(=O)(=O)N1[C@@H](c2cccc(Cl)c2)C(C(=O)N[C@@H](CC(C)C)C(N)=O)=CC[C@H]1c1ccc(Cl)cc1 and write its reported GI50.
6.15 µM

Read the entry CC(C)(C)[C@@H]1C=C(C(=O)N[C@@H](Cc2ccccc2)C(N)=O)[C@H](c2ccc(Cl)c(Cl)c2)N1S(=O)(=O)C(C)(C)C and write its reported GI50.
4.22 to 5.9 µM

Read the entry Cc1ccccc1S(=O)(=O)N1[C@@H](c2cccc(Cl)c2)C(CO)=CC[C@H]1c1ccc(Cl)cc1 and write its reported GI50.
5.8 µM

====

organism: Rattus norvegicus; assay: Inhibition of rat recombinant geranylgeranyltransferase type I expressed in Escherichia coli assessed as residual enzyme activity for geranylgeranylation of K-Ras4B at 50 uM incubated for 30 mins in presence of [3H]GGPP by scintillation counting assay relative to control
Metric: Activity (%)

Consider the following illustrative entries.
Read the entry COc1ccc([C@@H]2C[C@@H](Sc3ccc(C)cc3)[C@H](C(=O)O)CN2S(=O)(=O)c2ccc(C)cc2)cc1OC and write its reported Activity.
105

Read the entry Cc1ccc(S(=O)(=O)N2[C@@H](c3ccc(C(C)(C)C)cc3)C(C(=O)O)=CC[C@H]2c2cccc(F)c2)cc1 and write its reported Activity.
77.2

(1) COc1ccc(S[C@@H]2C[C@@H](c3ccc(Cl)cc3)N(S(=O)(=O)c3ccc(C)cc3)C[C@H]2C(=O)O)cc1
(2) C=CCS[C@H]1[C@@H](C(=O)O)[C@H](c2ccc(C(C)C)cc2)N(S(=O)(=O)c2ccc(C)cc2)[C@@H]1CC1CCCC1
# min-compare on Activity between 1 and 2 Refer to your chosen entry by its label in the reply.
2
(2: 31.7%, 1: 85.5%)
